Biological target: UniProt Q5BJF2
Assay: biochemical
Assay type: Expi293 membranes
Settings: read-out: % of control remaining
Below is a list of entries, each paired with its recorded remaining activity at 1 µM value.
Write the value in % as a bare number.

Some solved cases for reference:
O=[N+]([O-])c1cccc([C@H](O)CN2CC(Cc3cccc(C(F)(F)F)c3)C2)c1    3.8
Cc1cccc(C)c1OC[C@H](C)NC(=O)C(=O)NC[C@@H]1CCCNC1    64.9
O=C(C[C@]1(O)CCCNC1)Nc1cn2cc(Br)ncc2n1    104

Pending compound:
Challenge: State the recorded remaining activity at 1 µM for this entry: COc1cccc2c1OC[C@H](NC(=O)C(=O)N[C@@H]1CC(=O)N(C)C1)C2
Response given: 222

* * *

Target: human σ2 receptor (TMEM97) (Homo sapiens)
Test: biochemical
Assay type: Expi293 membranes
Conditions: read-out: % of control remaining
Response field label: string, one of Met (remaining activity at 1 µM strictly below 80%) or Not met.

Answered cases to consult:
COCCC(=O)N1CC[C@@](O)(CNC(=O)[C@@H]2CCN(C)C2=O)C1    Not met
CCN(CC)[C@H]1CCN(Cc2ncc(Cl)cc2Cl)C1    Met
CN(C[C@H]1CCCCO1)[C@@H]1CCN(C(=O)c2nc(Cl)cs2)C1    Met

Challenge: In plain terms, does Cc1ccnc2nc(C(=O)N3CCN(CCN4CCCC4)CC3)nn12 come in under 80% for remaining activity at 1 µM?
Response given: Not met

Challenge: In plain terms, does CC[C@H](CO)N1CCN(c2cc(Cl)c3cnn(C)c3n2)CC1 come in under 80% for remaining activity at 1 µM?
Response given: Not met

Challenge: In plain terms, does O=C(NCC1(O)CN(C(=O)CCn2ccnc2)C1)[C@H]1CC=CCC1 come in under 80% for remaining activity at 1 µM?
Response given: Not met

Challenge: In plain terms, does CN(Cc1cc(F)cc(F)c1)C(=O)C(=O)N1CC[C@H](N2CC=CC2)C1 come in under 80% for remaining activity at 1 µM?
Response given: Not met

Challenge: In plain terms, does Cc1ncc(CNC[C@@H]2CN(C(=O)c3cn(C)cn3)CCO2)cn1 come in under 80% for remaining activity at 1 µM?
Response given: Not met

Challenge: In plain terms, does Cc1ccc([N+](=O)[O-])cc1[C@H](C)N1C[C@H]2CCC[C@@H]2C1 come in under 80% for remaining activity at 1 µM?
Response given: Met

Challenge: In plain terms, does CC1CCN(C[C@H](O)CNc2nccc3ccc([N+](=O)[O-])cc23)CC1 come in under 80% for remaining activity at 1 µM?
Response given: Met

Challenge: In plain terms, does C[C@H](C(=O)N[C@H]1C[C@H]2CC[C@@H]1N2CCn1cccn1)c1ccccc1F come in under 80% for remaining activity at 1 µM?
Response given: Not met

Challenge: In plain terms, does O=C(c1cncc(N2CCOCC2)c1)N1CCN2C(=O)NC[C@@H]2C1 come in under 80% for remaining activity at 1 µM?
Response given: Not met

* * *

Below is a list of entries, each paired with its recorded remaining activity at 1 µM value.
Molecular target: UniProt:Q5BJF2
Assay: biochemical
Format: Expi293 membranes
Conditions: read-out: % of control remaining
Write the value in % as a bare number.

Some solved cases for reference:
CCC1(N2CCOCC2)CCN(C(=O)C2=NN(C)C(=O)CC2)CC1    179
Cc1nn(Cc2ccc(F)cc2)c(Cl)c1CNC[C@@]1(O)CCN(C)C1    84.1
O=C(C[C@@H]1CCCN1CCOc1cccc([N+](=O)[O-])c1)c1cccs1    7.5
FC(F)(F)c1cccc([C@@]2(F)CCN(C[C@@H]3CCSC3)C2)c1    20
CN(C[C@H](O)CN[C@@H]1C[C@H]2CCCCN2C1=O)C(=O)OC(C)(C)C    92.4

Challenge: State the recorded remaining activity at 1 µM for this entry: CC(C)N1CC[C@H](CCNC(=O)c2cc(-c3cccnc3)on2)C1
Response given: 130

Challenge: State the recorded remaining activity at 1 µM for this entry: O[C@H](COC(c1ccccc1)c1ccccc1)CN1CC[C@@H]2CCC[C@H]21
Response given: 36.3

* * *

Target: human σ2 receptor (TMEM97) (Homo sapiens)
Experiment: biochemical
Assay type: Expi293 membranes
Conditions: read-out: % of control remaining
property-label: remaining activity at 1 µM (%)
Write the value in % as a bare number.

Some solved cases for reference:
Cc1cccc(C[C@H](CO)NCc2cnc(C3CCCCC3)s2)c1 [ZINC000526962900]    60.7
O[C@@H](COCc1ccccc1Cl)CN1CC[C@H](Cc2ccc(F)cc2)C1 [ZINC000605902355]    11.5

Challenge: Find remaining activity at 1 µM (human σ2 receptor (TMEM97) (Homo sapiens)) for the entry COC(=O)[C@H](c1cccc(Cl)c1Cl)N1CCC[C@H](N2CCCC2)C1 [ZINC000611661177]
Response given: 19.1

* * *

Target: human σ2 receptor (TMEM97) (Homo sapiens, UniProt Q5BJF2)
Sequence (Q5BJF2 whole entry): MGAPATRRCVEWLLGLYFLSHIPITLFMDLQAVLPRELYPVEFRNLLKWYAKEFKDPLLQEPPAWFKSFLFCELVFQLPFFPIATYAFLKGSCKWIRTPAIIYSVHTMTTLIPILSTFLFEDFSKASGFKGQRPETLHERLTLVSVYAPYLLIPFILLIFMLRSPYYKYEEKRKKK
Test: biochemical
Format: Expi293 membranes
Details: read-out: % of control remaining
Below is a list of entries, each paired with its recorded remaining activity at 1 µM value.
Write the value in % as a bare number.

CCCN1CC[C@H](NS(=O)(=O)c2ccc(C(=O)OC)cc2F)C1    97.7
Fc1cc(Br)cnc1N1CCN(CCc2cccs2)CC1    114
C[C@H]1CN(CCN(C)C(=O)C(=O)NC2CCN(C)CC2)C[C@H](C)O1    106

Challenge: State the recorded remaining activity at 1 µM for this entry: O=C(Cn1cnnn1)N1CC(CNC(=O)C23CCCN2CCC3)C1
Response given: 72.3

* * *

Molecular target: human σ2 receptor (TMEM97) (Homo sapiens)
Assay: biochemical
Format: Expi293 membranes
Conditions: read-out: % of control remaining
Below is a list of entries, each paired with its recorded remaining activity at 1 µM value.
Write the value in % as a bare number.

Some solved cases for reference:
Cn1nc(C(=O)N2CC(O)(CNC(=O)C3=CCOCC3)C2)ccc1=O    125
CCn1ncnc1CN1CCCN(C(=O)C[C@H]2CC(=O)NC2=O)CC1    118
Cc1cnc(CN[C@@H](CO)CCC(C)(C)C)n1C    103

Challenge: State the recorded remaining activity at 1 µM for this entry: O=C(CN1CC[C@@H]2CCC[C@@H]21)Nc1cccc(I)c1
Response given: 92

Challenge: State the recorded remaining activity at 1 µM for this entry: O=C(NCC1CCN([C@H]2CCNC2=O)CC1)c1ccn(C(F)F)n1
Response given: 92.1

Challenge: State the recorded remaining activity at 1 µM for this entry: COC(=O)c1cccc(S(=O)(=O)N2CC[C@@H](N3CCCC3)[C@@H]2C)c1
Response given: 75

Challenge: State the recorded remaining activity at 1 µM for this entry: CS(=O)(=O)N1CC(C(=O)N2CC(=O)N(CC(F)(F)F)C2)C1
Response given: 119

Challenge: State the recorded remaining activity at 1 µM for this entry: CN(C(=O)c1cccnn1)C1CN(C(=O)[C@H]2CCC[C@H]3CCCN32)C1
Response given: 111

Challenge: State the recorded remaining activity at 1 µM for this entry: O=C(C1CCCC1)N1CCC[C@H]([C@@H]2CCN(C/C=C\Cl)C2)C1
Response given: 33

Challenge: State the recorded remaining activity at 1 µM for this entry: C[C@H](Cn1ncc2ccccc2c1=O)N[C@H]1CC[C@H](Cc2ccccc2)C1
Response given: 0.9

Challenge: State the recorded remaining activity at 1 µM for this entry: COc1ccc(C(=O)N2CC[C@H](N3CCCC3)[C@@H]2C)nc1Cl
Response given: 133

Challenge: State the recorded remaining activity at 1 µM for this entry: O=C(NCc1ccc(F)cc1C(F)(F)F)[C@@H]1CC12CCNCC2
Response given: 53.9

* * *

Target: human σ2 receptor (TMEM97) (Homo sapiens, UniProt Q5BJF2)
Experiment: biochemical
Type: Expi293 membranes
Conditions: read-out: % of control remaining
Response field label: string, one of TRUE (remaining activity at 1 µM strictly below 90%) or FALSE.

O[C@@H](CN[C@@H](c1ccc(Br)cc1Cl)C1CC1)CN1CCCC1 [ZINC000446751851]    TRUE
COc1cccnc1CN[C@H](Cc1ccc(C)cc1)C1CC1 [ZINC000453351921]    TRUE
CN1CC[C@]2(CCN(C(=O)CN3C(=O)NC4(CCCC4)C3=O)C2)C1 [ZINC000366544782]    FALSE
CC[C@@H]1CCC[C@H](NC(=O)[C@H](C)N2CCCCCC2)C1 [ZINC000525245955]    FALSE

Challenge: In plain terms, does C[C@H]1CN/C(=N/Cc2cccc(OCc3ccccc3)c2)N1 [ZINC000261552362] come in under 90% for remaining activity at 1 µM?
Response given: TRUE

Challenge: In plain terms, does O[C@H](CN[C@@H]1CCc2ccccc2OC1)COc1c(Cl)cccc1Cl [ZINC000801571276] come in under 90% for remaining activity at 1 µM?
Response given: TRUE

Challenge: In plain terms, does C[C@H]1CCCN1CC(=O)N(C)[C@H]1CCN(C(=O)C2CCOCC2)C1 [ZINC000936344871] come in under 90% for remaining activity at 1 µM?
Response given: TRUE

Challenge: In plain terms, does O=C(Nc1ccc2ncnn2c1)[C@]1(O)CCN(Cc2ccccc2)C1 [ZINC000655168559] come in under 90% for remaining activity at 1 µM?
Response given: FALSE

Challenge: In plain terms, does CCc1ccnc(CNC(=O)C(=O)N[C@@H]2C[C@H](C)N(C3CC3)C2)c1 [ZINC000358071102] come in under 90% for remaining activity at 1 µM?
Response given: FALSE

Challenge: In plain terms, does CC(C)(C)[C@@H]1CCN(C[C@@H](O)COCc2ccccc2F)C1 [ZINC000409447221] come in under 90% for remaining activity at 1 µM?
Response given: TRUE

Challenge: In plain terms, does Cc1ccc([C@H](NC[C@@]2(O)CCN(C)C2)c2ccccc2)cc1 [ZINC000358253868] come in under 90% for remaining activity at 1 µM?
Response given: TRUE

Challenge: In plain terms, does CC(C)CC(=O)N[C@@H](C(=O)N1CCC[C@H](N2CCCC2)C1)c1ccccc1 [ZINC000332414923] come in under 90% for remaining activity at 1 µM?
Response given: TRUE

Challenge: In plain terms, does O=S(=O)(N[C@@H]1CCc2nnnn2CC1)c1cnc2n1CCCC2 [ZINC001363999416] come in under 90% for remaining activity at 1 µM?
Response given: FALSE

Challenge: In plain terms, does O[C@H]1c2ccccc2C[C@H]1N1Cc2cccc(Cl)c2C1 [ZINC000287374567] come in under 90% for remaining activity at 1 µM?
Response given: FALSE

Challenge: In plain terms, does CCc1noc(C)c1C(=O)NC1CN(C(=O)[C@H]2CCCCN2C)C1 [ZINC000991393621] come in under 90% for remaining activity at 1 µM?
Response given: FALSE

Challenge: In plain terms, does Cc1cc(F)c(CN[C@@H]2CCN(c3ccccc3C(N)=O)C2)c(Cl)c1 [ZINC000656499190] come in under 90% for remaining activity at 1 µM?
Response given: TRUE

Challenge: In plain terms, does Cc1cnoc1C(=O)NC1CN(C(=O)[C@@H]2CCN(C)S2(=O)=O)C1 [ZINC000998978244] come in under 90% for remaining activity at 1 µM?
Response given: FALSE

Challenge: In plain terms, does C[C@H]1CCCN1CC(=O)N(C)[C@H]1CCN(C(=O)CC(C)(C)O)C1 [ZINC000937267298] come in under 90% for remaining activity at 1 µM?
Response given: FALSE

Challenge: In plain terms, does COC(=O)[C@@H]1CCN([C@H](C)C(=O)NCc2ccccc2C)[C@@H]1C [ZINC000347007006] come in under 90% for remaining activity at 1 µM?
Response given: FALSE

Challenge: In plain terms, does OC1(CN2CC(Cc3ccccc3C(F)(F)F)C2)CCC1 [ZINC001320149247] come in under 90% for remaining activity at 1 µM?
Response given: TRUE

Challenge: In plain terms, does Cc1cccc2c1CCN2C(=O)[C@@H]1CC[C@H]2CCCC[C@@H]2N1 [ZINC001579778746] come in under 90% for remaining activity at 1 µM?
Response given: TRUE

Challenge: In plain terms, does COC(=O)[C@H](NCC(C)(C)N1CCc2ccccc2C1)c1ccccc1 [ZINC000609803478] come in under 90% for remaining activity at 1 µM?
Response given: TRUE

Challenge: In plain terms, does CN(CC(=O)Nc1c(Cl)cccc1Cl)C[C@@H]1CC1(C)C [ZINC000662345330] come in under 90% for remaining activity at 1 µM?
Response given: TRUE

Challenge: In plain terms, does CN1CC[C@](O)(CNC(=O)c2cc3cc([N+](=O)[O-])ccc3s2)C1 [ZINC000358051108] come in under 90% for remaining activity at 1 µM?
Response given: FALSE

Challenge: In plain terms, does Cc1cccnc1[C@H](NC(=O)N1CCN(C2CCC2)CC1)C(C)C [ZINC000265281429] come in under 90% for remaining activity at 1 µM?
Response given: FALSE
